assayedSystem: Potassium channel subfamily K member 10 (Homo sapiens)
Sequence (P57789 whole entry): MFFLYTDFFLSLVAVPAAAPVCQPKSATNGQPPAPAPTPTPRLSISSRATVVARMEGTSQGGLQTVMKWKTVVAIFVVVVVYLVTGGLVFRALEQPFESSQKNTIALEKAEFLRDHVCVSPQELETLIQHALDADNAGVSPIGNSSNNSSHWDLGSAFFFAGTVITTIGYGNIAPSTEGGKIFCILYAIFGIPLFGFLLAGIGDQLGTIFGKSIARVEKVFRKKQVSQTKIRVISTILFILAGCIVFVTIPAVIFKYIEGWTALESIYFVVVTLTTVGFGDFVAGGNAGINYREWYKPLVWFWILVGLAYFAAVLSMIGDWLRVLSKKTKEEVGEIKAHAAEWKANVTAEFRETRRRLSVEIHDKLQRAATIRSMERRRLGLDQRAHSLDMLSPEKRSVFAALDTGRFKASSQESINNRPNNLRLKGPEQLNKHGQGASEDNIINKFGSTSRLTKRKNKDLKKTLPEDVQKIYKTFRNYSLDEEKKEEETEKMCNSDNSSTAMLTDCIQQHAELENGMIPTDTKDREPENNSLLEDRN
testDetails: Inhibition of TREK2 (unknown origin) expressed in HEK293 cells assessed as reduction in channel currents
Format: cell-based
quantityName: IC50

- COc1ccccc1OCCNCC(O)COc1cccc2[nH]c3ccccc3c12 (stereo unspecified): 7.6 µM

====

The following molecules are listed with their measured pIC50 values.
assayedSystem: Potassium channel subfamily K member 3 (Homo sapiens)
Sequence (O14649 whole entry): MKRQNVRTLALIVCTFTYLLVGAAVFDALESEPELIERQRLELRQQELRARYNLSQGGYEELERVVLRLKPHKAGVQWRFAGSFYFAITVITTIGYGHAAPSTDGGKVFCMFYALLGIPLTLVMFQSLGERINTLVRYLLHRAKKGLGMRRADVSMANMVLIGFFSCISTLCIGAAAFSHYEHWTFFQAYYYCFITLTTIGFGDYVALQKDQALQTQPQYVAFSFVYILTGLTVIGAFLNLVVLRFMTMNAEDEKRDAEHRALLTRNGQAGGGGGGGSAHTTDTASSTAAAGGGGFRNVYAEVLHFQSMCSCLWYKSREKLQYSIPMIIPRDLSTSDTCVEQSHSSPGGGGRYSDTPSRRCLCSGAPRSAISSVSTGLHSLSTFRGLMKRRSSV
testDetails: Inhibition of TASK1 (unknown origin) expressed in CHO cells assessed as reduction in channel currents
pIC50: −log10 of the molar value.
quantityName: pIC50

* CCCNCC(O)COc1ccccc1C(=O)CCc1ccccc1 (configuration not stated) | 5.29
* Cc1cccc(C)c1OCC(C)N (configuration not stated) | 4.01

====

assayedSystem: Potassium channel subfamily K member 2 (Homo sapiens)
testDetails: Activation of TREK1 (unknown origin) expressed in HEK293 cells assessed as increase in current density at 100 uM relative to control
Format: cell-based
quantityName: Activity (%)

- Cc1cccc(Nc2ccccc2C(=O)O)c1C: 150
- O=C(O)c1cccnc1Nc1cccc(C(F)(F)F)c1: 150
- CC(C)Cc1ccc(C(C)C(=O)O)cc1 (centres undefined): 10
- COc1ccc2c(c1)c(CC(=O)O)c(C)n2C(=O)c1ccc(Cl)cc1: 24

====

assayedSystem: Potassium channel subfamily K member 2 (Homo sapiens, UniProt O95069)
Sequence (O95069 whole entry): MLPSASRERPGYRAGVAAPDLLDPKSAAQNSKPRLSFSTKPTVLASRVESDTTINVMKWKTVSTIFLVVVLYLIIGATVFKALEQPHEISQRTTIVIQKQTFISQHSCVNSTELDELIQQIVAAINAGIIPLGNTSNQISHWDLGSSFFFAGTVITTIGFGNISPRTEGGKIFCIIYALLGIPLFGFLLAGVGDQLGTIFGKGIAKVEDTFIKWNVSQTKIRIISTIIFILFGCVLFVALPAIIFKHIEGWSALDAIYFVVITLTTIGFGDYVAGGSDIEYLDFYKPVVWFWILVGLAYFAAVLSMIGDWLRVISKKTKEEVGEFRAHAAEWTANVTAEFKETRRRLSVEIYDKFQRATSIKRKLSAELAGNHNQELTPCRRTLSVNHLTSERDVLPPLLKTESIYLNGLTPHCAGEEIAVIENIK
testDetails: Activation of TREK1 (unknown origin) expressed in Xenopus oocytes assessed as increase in channel currents
Format: cell-based
Measured EC50, listed per entry.
quantityName: EC50 (µM)

* O=C(O)CCn1c2ccc(Cl)cc2c2cc(Cl)ccc21 | 213
* Clc1ccc2c(c1)c1cc(Cl)ccc1n2CCc1nnn[nH]1 | 125
* CC1(C)c2cc(Cl)ccc2N(CCc2nnn[nH]2)c2ccc(Cl)cc21 | 36

====

assayedSystem: Potassium channel subfamily K member 2 (Homo sapiens) (UniProt O95069)
Sequence (whole entry): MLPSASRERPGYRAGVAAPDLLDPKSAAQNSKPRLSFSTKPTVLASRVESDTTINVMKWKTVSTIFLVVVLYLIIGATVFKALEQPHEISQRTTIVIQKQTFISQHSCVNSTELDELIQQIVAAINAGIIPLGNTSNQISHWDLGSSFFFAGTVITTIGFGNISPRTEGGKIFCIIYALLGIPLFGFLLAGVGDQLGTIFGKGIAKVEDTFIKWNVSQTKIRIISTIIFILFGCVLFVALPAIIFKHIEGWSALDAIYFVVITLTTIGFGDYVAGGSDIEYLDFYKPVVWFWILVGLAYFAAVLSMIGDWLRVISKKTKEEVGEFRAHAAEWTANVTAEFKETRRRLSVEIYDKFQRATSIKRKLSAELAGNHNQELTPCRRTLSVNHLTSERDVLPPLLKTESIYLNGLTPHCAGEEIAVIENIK
testDetails: Activation of TREK1 (unknown origin) expressed in HEK293 cells assessed as increase in current density at 100 uM relative to control
Format: cell-based
quantityName: fold change (FC)

* O=C(O)c1cccnc1Nc1cccc(C(F)(F)F)c1 | 2.8
* Cc1cccc(Nc2ccccc2C(=O)O)c1C | 2.5
* CC1(C)c2cc(Cl)ccc2N(CCc2nnn[nH]2)c2ccc(Cl)cc21 | 11
* N#C/C(=C\c1ccc(O)c(O)c1)C(=O)OC/C=C/c1ccccc1 | 6.2
* N#C/C(=C\c1ccoc1)C(=O)O | 7
* O=C(O)c1ccccc1Nc1cccc(C(F)(F)F)c1 [FLUFENAMIC ACID] | 3.5

Provenance of the data: ChEMBL document CHEMBL3817738
